assay: Volume of distribution at steady state in rat at 1 mg/kg, iv; type: ADME, organism-based; details: in vivo, read-out: Vdss
Measurement kind: Vd (L/kg)
Just the number in L/kg, nothing appended.

The recorded Vd for CC(C)[C@@H](NC(=O)c1cc(C(F)(F)F)ccc1F)C(=O)N1CCC2(CC1)C(=O)N(C)C(=O)N2c1ccc2[nH]ncc2c1 is 1.98

###

target: Cytochrome P450 2C9 (Homo sapiens)
Sequence (P11712 whole entry): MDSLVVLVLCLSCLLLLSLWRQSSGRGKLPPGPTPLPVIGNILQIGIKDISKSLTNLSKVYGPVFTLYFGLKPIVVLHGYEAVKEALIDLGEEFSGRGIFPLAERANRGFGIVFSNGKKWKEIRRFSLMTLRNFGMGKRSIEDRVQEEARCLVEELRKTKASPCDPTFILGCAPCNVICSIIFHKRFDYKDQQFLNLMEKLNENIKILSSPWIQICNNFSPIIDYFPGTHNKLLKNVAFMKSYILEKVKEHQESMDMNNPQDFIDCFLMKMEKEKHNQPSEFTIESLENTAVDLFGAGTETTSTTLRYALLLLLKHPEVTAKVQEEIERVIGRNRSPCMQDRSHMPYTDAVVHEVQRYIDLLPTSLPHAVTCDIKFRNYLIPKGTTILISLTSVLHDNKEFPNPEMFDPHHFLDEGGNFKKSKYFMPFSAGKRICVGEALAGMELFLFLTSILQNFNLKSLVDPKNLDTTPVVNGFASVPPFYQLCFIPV
Measurement kind: IC50 (µM)
Please respond with the number in µM and leave the unit unwritten.

# compound CC(C)[C@@H](NC(=O)c1cc(C(F)(F)F)ccc1F)C(=O)N1CCC2(CC1)C(=O)N(C)C(=O)N2c1ccc2[nH]ncc2c1 ; its IC50 = 10.4

###

experiment: Half life in dog at 1 mg/kg, po; format: ADME, organism-based, Canis lupus familiaris; conditions: in vivo
Measurement kind: half-life (min)
Give the number; min is assumed, so skip it.

The reported value for CC(C)[C@@H](NC(=O)c1cc(C(F)(F)F)ccc1F)C(=O)N1CCC2(CC1)C(=O)N(C)C(=O)N2c1ccc2[nH]ncc2c1 in terms of half-life is 252

###

experiment: Oral bioavailability in mouse at 10 mg/kg; format: ADME, organism-based; details: in vivo
Measurement kind: bioavailability (%)
Quick reminder: number only, in %, skip the unit.

# bioavailability of CC(C)[C@@H](NC(=O)c1cc(C(F)(F)F)ccc1F)C(=O)N1CCC2(CC1)C(=O)N(C)C(=O)N2c1ccc2[nH]ncc2c1 = 81

###

target: Autotaxin (Homo sapiens, UniProt Q13822); assay: Inhibition of C-terminal FLAG-tagged human autotaxin expressed in Freestyle 293 cells assessed as reduction in choline release from LPC 16:0 pre-incubated for 10 mins before LPC addition and measured after 1 hr by choline oxidase/HRP coupled assay; assay type: cell-based
Measurement kind: pIC50
Quick note: pIC50 means taking -log10 of the concentration in moles per liter.

// below: answered compounds
sample_smiles=Cc1ccc(C(F)(F)F)cc1C(=O)N[C@@H](C(=O)N1CCC2(CC1)C(=O)N(C)C(=O)N2c1ccc2[nH]ncc2c1)C(C)C test_value=5.31
sample_smiles=Cc1cccc(C(=O)N[C@@H](C(=O)N2CCC3(CC2)C(=O)N(C)CN3C2CC2)C2CCCCC2)c1F test_value=6.09
sample_smiles=Cc1cccc(C(=O)N[C@H](C(=O)N2CCC3(CC2)C(=O)N(C)CN3c2ccccc2)C2CCOCC2)c1 test_value=5.00
sample_smiles=CC(C)[C@@H](NC(=O)c1cc(C(F)(F)F)ccc1F)C(=O)N1CCC2(CC1)C(=O)N(C)C(=O)N2c1ccc2[nH]ncc2c1 test_value=7.26
sample_smiles=CC(C)[C@@H](NC(=O)c1cc(C(F)(F)F)ccc1F)C(=O)N1CCC2(CC1)C(=O)N(C)C(=O)N2c1cccc(Cl)c1 test_value=7.34
sample_smiles=Cc1cccc(C(=O)N[C@@H](C(=O)N2CCC3(CC2)C(=O)N(C)C(=O)N3c2ccccc2)C(C)C)c1F test_value=6.17

Let's switch to this compound now.
Record CC(C)[C@H](NC(=O)c1cc(C(F)(F)F)ccc1F)C(=O)N1CCC2(CC1)C(=O)N(C)C(=O)N2c1ccc2[nH]ncc2c1 . Reported pIC50: 5.00
